Listing of entries alongside the reported IC50.
Biological target: EGFR del19/T790M/C797S (Homo sapiens, UniProt P00533, C797S/DEL746-750/T790M)
Sequence (P00533 with tags, fused parts or gaps DEL746-750/T790M/C797S): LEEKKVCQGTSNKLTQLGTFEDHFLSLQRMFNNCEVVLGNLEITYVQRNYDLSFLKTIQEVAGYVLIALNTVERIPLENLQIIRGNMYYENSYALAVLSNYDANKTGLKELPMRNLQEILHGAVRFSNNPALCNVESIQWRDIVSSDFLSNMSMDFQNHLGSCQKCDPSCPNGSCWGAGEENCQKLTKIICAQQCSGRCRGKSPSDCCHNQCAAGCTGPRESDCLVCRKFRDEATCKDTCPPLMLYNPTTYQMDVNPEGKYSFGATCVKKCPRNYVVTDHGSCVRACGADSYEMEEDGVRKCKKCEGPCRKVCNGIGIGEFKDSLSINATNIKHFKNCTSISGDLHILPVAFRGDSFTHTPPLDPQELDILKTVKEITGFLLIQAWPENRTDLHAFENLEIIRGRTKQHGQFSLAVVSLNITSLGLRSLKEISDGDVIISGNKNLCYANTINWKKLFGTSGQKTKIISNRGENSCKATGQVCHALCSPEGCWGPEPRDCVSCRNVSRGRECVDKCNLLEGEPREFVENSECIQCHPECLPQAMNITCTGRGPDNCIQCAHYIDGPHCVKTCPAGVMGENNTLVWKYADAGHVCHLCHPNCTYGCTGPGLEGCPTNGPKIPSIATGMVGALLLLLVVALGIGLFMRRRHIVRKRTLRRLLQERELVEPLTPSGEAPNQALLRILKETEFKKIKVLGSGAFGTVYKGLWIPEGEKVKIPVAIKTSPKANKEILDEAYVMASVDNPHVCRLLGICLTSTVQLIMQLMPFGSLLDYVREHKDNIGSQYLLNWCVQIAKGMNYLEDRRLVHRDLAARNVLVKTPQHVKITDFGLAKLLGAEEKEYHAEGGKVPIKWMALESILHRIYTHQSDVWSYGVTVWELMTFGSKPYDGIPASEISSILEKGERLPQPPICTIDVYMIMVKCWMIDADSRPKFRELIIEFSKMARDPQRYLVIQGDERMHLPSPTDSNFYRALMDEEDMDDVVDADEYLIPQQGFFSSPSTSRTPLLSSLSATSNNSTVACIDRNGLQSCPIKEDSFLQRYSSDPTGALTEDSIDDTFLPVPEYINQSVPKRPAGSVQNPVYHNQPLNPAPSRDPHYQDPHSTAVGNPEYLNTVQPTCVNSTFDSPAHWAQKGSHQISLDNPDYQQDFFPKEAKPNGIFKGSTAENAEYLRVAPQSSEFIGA
Test: Biochemical EGFR kinase assay (Lance Ultra TR-FRET), triple mutant del19/T790M/C797S
Settings: Km ATP; read-out: IC50 del19/T790M/C797S (nM) Km ATP
Write down the numeric answer in nM and omit the unit.

{"givenSmiles": "CN(C)CC[C@H]1CC[C@@H](Nc2cc(Nc3ccnc(-c4cnn(S(=O)(=O)C5CC5)c4)n3)ncc2-c2ccn(C(F)F)n2)CC1", "testedSystem": "EGFR del19/T790M/C797S (Homo sapiens, UniProt P00533, C797S/DEL746-750/T790M)", "endpointUnit": "nM", "measuredValue": 0.6}

Enter IC50 (test system EGFR del19/T790M/C797S (Homo sapiens, UniProt P00533, C797S/DEL746-750/T790M)) for `O=C1CC[C@]2(CC[C@H](Nc3cc(Nc4ccnc(-c5cnn(S(=O)(=O)C6CC6)c5)n4)ncc3-c3csc(C(F)(F)F)n3)CC2)N1`
0.6

Enter IC50 (test system EGFR del19/T790M/C797S (Homo sapiens, UniProt P00533, C797S/DEL746-750/T790M)) for `CN(C)C[C@H]1C[C@H](CNc2cc(Nc3ccnc(-c4cnn(S(=O)(=O)C5CC5)c4)n3)ncc2-c2ccn(C)n2)C1`
0.3

Enter IC50 (test system EGFR del19/T790M/C797S (Homo sapiens, UniProt P00533, C797S/DEL746-750/T790M)) for `O=S(=O)(C1CC1)n1cc(-c2nccc(Nc3cc(N[C@H]4CCC[C@H](CO)C4)c(-c4ccn(CC(F)(F)F)n4)cn3)n2)cn1`
0.6

Enter IC50 (test system EGFR del19/T790M/C797S (Homo sapiens, UniProt P00533, C797S/DEL746-750/T790M)) for `CN(C)C[C@H]1CC[C@@H](Nc2cc(Nc3ccnc(-c4cnn(S(=O)(=O)C5CC5)c4)n3)ncc2-c2cc(C(C)(C)O)n(C)n2)CC1`
0.3

Enter IC50 (test system EGFR del19/T790M/C797S (Homo sapiens, UniProt P00533, C797S/DEL746-750/T790M)) for `CN(C)CC[C@H]1CC[C@@H](Nc2cc(Nc3nc(-c4cnn(S(=O)(=O)C5CC5)c4)ncc3F)ncc2-c2ccn(C(F)F)n2)CC1`
0.2
